System: H37Rv M. tuberculosis (strain ATCC 25618)
Test: Mycobacterium tuberculosis susceptibility assay REMA (resazurin microtiter assay)
Assay type: cell-based
Conditions: Mycobacterium tuberculosis, 144 h; Table 1; MTB growth REMA, H37Rv, Middlebrook 7H9, 6 days at 37° C.; read-out: REMA MIC
Provide the recorded MIC for the entries that follow.

[in] Give the reported MIC for this molecule. COc1ccc2nc(N3CCC(c4nc(-c5cccnc5)no4)CC3)ccc2c1
[out] < 7.8 µM

[in] Give the reported MIC for this molecule. c1cncc(-c2noc(C3CCN(c4ccc5cc(-c6ccncc6)ccc5n4)CC3)n2)c1
[out] < 7.8 µM

[in] Give the reported MIC for this molecule. COc1cccc2ccc(N3CCC(c4nc(-c5ccc(N6CCNCC6)nc5)no4)CC3)nc12
[out] 15.6 to 31.5 µM

[in] Give the reported MIC for this molecule. COc1cccc2ccc(N3CCC(c4nc(-c5ccc(O)cc5)no4)CC3)nc12
[out] 7.8 to 15.6 µM

---

Assay: Human plasma protein binding (PPB) assay, equilibrium dialysis
Type: in vitro ADME
Conditions: non-diluted plasma, pH 7.4, percentage of plasma protein bounded compound, 5 hours dialysis, read-out: hPPB
Description: In an embodiment, human plasma protein binding (PPB) assay was carried out. The assay was performed in a multiple-use 96-well dialysis unit (HTD96b dialyzer). […] Verapamil was also evaluated in parallel as reference compound. […] Supernatants were analysed using a Shimadzu VP HPLC system with a reverse phase column, coupled with a tandem mass spectrometer API 3000 (PE Sciex). […] The percentage of plasma protein bounded compound and its recovery were calculated using the equations below: […]
property_label: fraction unbound at 5 h, 1 μM

[in] Give the reported fraction unbound at 5 h, 1 μM for this compound. COc1cccc2ccc(N3CCC(c4nc(-c5ccc(OC(F)(F)F)cc5)no4)CC3)nc12
[out] ≤ 0.001

---

Tested on: HepG2 cell line
Assay: In vitro cytotoxicity assay (MTS tetrazolium reduction)
Format: cell-based
Conditions: Homo sapiens, HepG2, 48 h
Where a name gives a salt, the structure may show the parent alone.
Provide the recorded IC50 for the entries that follow.

[in] Give the reported IC50 for this molecule. COc1cccc2ccc(N3CCC(c4nc(-c5cccc(C(F)(F)F)c5)no4)CC3)nc12 [Compound 7]
[out] > 100 µM

[in] Give the reported IC50 for this molecule. COc1cccc2ccc(N3CCC(c4nc(-c5ccc(C(F)(F)F)nc5)no4)CC3)nc12 [Compound 11]
[out] 20 to 50 µM

[in] Give the reported IC50 for this molecule. COc1cccc2ccc(N3CCC(c4nc(-c5cccnc5)no4)CC3)nc12 [Compound 10, hydrochloride]
[out] 50 to 100 µM

[in] Give the reported IC50 for this molecule. COc1cccc2ccc(N3CCC(c4nc(-c5ccc(OC(F)(F)F)cc5)no4)CC3)nc12 [Compound 3]
[out] > 100 µM

---

Test system: H37Rv M. tuberculosis (strain ATCC 25618)
Experiment: Mycobacterium tuberculosis susceptibility assay REMA (resazurin microtiter assay)
Format: cell-based
Details: Mycobacterium tuberculosis, 144 h, read-out: REMA MIC
Counter-ions that a name gives are not always drawn.
property_label: MIC

[in] Give the reported MIC for this compound. COc1cccc2ccc(N3CCC(c4nc(-c5ccc(Cl)nc5)no4)CC3)nc12 [Compound 31, hydrochloride]
[out] 15.6 to 31.5 µM

[in] Give the reported MIC for this compound. COc1cccc2ccc(N3CCC(c4nc(-c5cccc(C(F)(F)F)c5)no4)CC3)nc12 [Compound 7]
[out] 15.6 to 31.5 µM

[in] Give the reported MIC for this compound. COc1cccc2ccc(N3CCC(c4nc(-c5ccc(N6CCCC6)nc5)no4)CC3)nc12 [Compound 50, hydrochloride]
[out] 7.8 to 15.6 µM

[in] Give the reported MIC for this compound. COc1cccc2ccc(N3CCC(c4nc(-c5ccc(N6CCCCC6)nc5)no4)CC3)nc12 [Compound 33]
[out] < 7.8 µM

[in] Give the reported MIC for this compound. COc1cccc2ccc(N3CCC(c4nc(-c5ccc(C(F)(F)F)cc5)no4)CC3)nc12 [Compound 5, hydrochloride]
[out] 7.8 to 15.6 µM

[in] Give the reported MIC for this compound. COc1cc(OC)cc(-c2noc(C3CCN(c4ccc5cccc(OC)c5n4)CC3)n2)c1 [Compound 6]
[out] 7.8 to 15.6 µM

[in] Give the reported MIC for this compound. COc1cccc2ccc(N3CCC(c4nc(-c5ccc(C(F)(F)F)nc5)no4)CC3)nc12 [Compound 11]
[out] < 7.8 µM

[in] Give the reported MIC for this compound. Clc1cccc2ccc(N3CCC(c4nc(-c5cccnc5)no4)CC3)nc12 [Compound 18, hydrochloride]
[out] 15.6 to 31.5 µM
